# credit: PubChem BioAssay AID2060613

test system: 233499-124-R-J3-PDC complex spheroid viability; experiment: Anticancer human tumor 233499-124-R-J3-PDC patient-derived colon adenocarcinoma cell line growth inhibition [CLK]; settings: second compound 0.1 µM; first compound 0.1 µM; stronger effect = lower value

{"columns": ["COMPOUND", "viability, T/C"],
 "data": [
  ["Nc1ccn(C2OC(CO)C(O)C2(F)F)c(=O)n1 (stereo not drawn) + CN1CCN(c2cc(C(=O)Nc3cc4cc(-c5cnn(C)c5)ccc4cn3)ccn2)CC1", "92.1%"],
  ["CC(=O)O[C@H]1C(=O)[C@@]2(C)[C@H]([C@H](OC(=O)c3ccccc3)[C@]3(O)C[C@H](OC(=O)[C@H](O)[C@@H](NC(=O)c4ccccc4)c4ccccc4)C(C)=C1C3(C)C)[C@]1(OC(C)=O)CO[C@@H]1C[C@@H]2O + CNC(=O)c1ccc(Nc2nc(OC3CCCC3)c3c(-c4ccc5nc(C)oc5c4)c[nH]c3n2)c(OC)c1", "66%"],
  ["C=CC(=O)N1CCN(c2nc(=O)n(-c3c(C)ccnc3C(C)C)c3nc(-c4c(O)cccc4F)c(F)cc23)C(C)C1 (stereo not drawn) + CNC(=O)c1ccc(Nc2nc(OC3CCCC3)c3c(-c4ccc5nc(C)oc5c4)c[nH]c3n2)c(OC)c1", "71.6%"]
]}

###

system: 233499-124-R-J3-PDC complex spheroid viability; assay: Anticancer human tumor 233499-124-R-J3-PDC cell line growth inhibition [CLK]; conditions: second compound 1 µM; first compound 1 µM; active = viability on the fitted dose curve at most 10% of control; inactive = the rest;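 also: spheroids exposed to the drug combinations for seven days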
Outcome codes: yes (1) = active, no (0) = inactive

{"columns": ["MOLECULE", "QUALITATIVE_LABEL"],
 "data": [
  ["CC(=O)O[C@H]1C(=O)[C@@]2(C)[C@H]([C@H](OC(=O)c3ccccc3)[C@]3(O)C[C@H](OC(=O)[C@H](O)[C@@H](NC(=O)c4ccccc4)c4ccccc4)C(C)=C1C3(C)C)[C@]1(OC(C)=O)CO[C@@H]1C[C@@H]2O + CN1CCN(c2cc(C(=O)Nc3cc4cc(-c5cnn(C)c5)ccc4cn3)ccn2)CC1", "yes (1)"],
  ["COc1ccc([C@@H](O)c2cc(-c3ncnc4cc(N5CCOCC5)ccc34)c(F)cc2Cl)nn1 + CN1CCN(c2cc(C(=O)Nc3cc4cc(-c5cnn(C)c5)ccc4cn3)ccn2)CC1", "yes (1)"],
  ["O=C(c1cc(Cc2n[nH]c(=O)c3ccccc23)ccc1F)N1CCN(C(=O)C2CC2)CC1 + CNC(=O)c1ccc(Nc2nc(OC3CCCC3)c3c(-c4ccc5nc(C)oc5c4)c[nH]c3n2)c(OC)c1", "no (0)"]
]}

###

system: 233499-124-R-J3-PDC complex spheroid viability; experiment: Anticancer human tumor 233499-124-R-J3-PDC cell line growth inhibition [CLK]; conditions: curve of first compound; second compound 10 µM;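 also: spheroids exposed to the drug combinations for seven days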

{"columns": ["COMPOUND", "IC50"],
 "data": [
  ["Cn1ncnc1[C@H]1c2n[nH]c(=O)c3cc(F)cc(c23)N[C@@H]1c1ccc(F)cc1 + CNC(=O)c1ccc(Nc2nc(OC3CCCC3)c3c(-c4ccc5nc(C)oc5c4)c[nH]c3n2)c(OC)c1", "> 0.1 µM"],
  ["Cn1ncnc1[C@H]1c2n[nH]c(=O)c3cc(F)cc(c23)N[C@@H]1c1ccc(F)cc1 + CN1CCN(c2cc(C(=O)Nc3cc4cc(-c5cnn(C)c5)ccc4cn3)ccn2)CC1", "< 0.000316 µM"],
  ["O=c1[nH]cc(F)c(=O)[nH]1 + CN1CCN(c2cc(C(=O)Nc3cc4cc(-c5cnn(C)c5)ccc4cn3)ccn2)CC1", "< 0.0316 µM"],
  ["CC1COCCN1c1cc(C2(S(C)(=N)=O)CC2)nc(-c2ccnc3[nH]ccc23)n1 (stereo not given) + CNC(=O)c1ccc(Nc2nc(OC3CCCC3)c3c(-c4ccc5nc(C)oc5c4)c[nH]c3n2)c(OC)c1", "4.41 µM"],
  ["COc1cccc2c1C(=O)c1c(O)c3c(c(O)c1C2=O)CC(O)(C(=O)CO)CC3OC1CC(N)C(O)C(C)O1 (stereo not given) + CNC(=O)c1ccc(Nc2nc(OC3CCCC3)c3c(-c4ccc5nc(C)oc5c4)c[nH]c3n2)c(OC)c1", "0.0799 µM"],
  ["Nc1ccn(C2OC(CO)C(O)C2(F)F)c(=O)n1 (stereo not given) + CN1CCN(c2cc(C(=O)Nc3cc4cc(-c5cnn(C)c5)ccc4cn3)ccn2)CC1", "< 0.0316 µM"],
  ["CC1(C)CCC(CN2CCN(c3ccc(C(=O)NS(=O)(=O)c4ccc(NCC5CCOCC5)c([N+](=O)[O-])c4)c(Oc4cnc5[nH]ccc5c4)c3)CC2)=C(c2ccc(Cl)cc2)C1 + CNC(=O)c1ccc(Nc2nc(OC3CCCC3)c3c(-c4ccc5nc(C)oc5c4)c[nH]c3n2)c(OC)c1", "4.47 µM"],
  ["CC(CO)NC(=O)c1cc(-c2ccc(Cl)cc2)nn(-c2cnn(C)c2)c1=O (stereo not given) + CN1CCN(c2cc(C(=O)Nc3cc4cc(-c5cnn(C)c5)ccc4cn3)ccn2)CC1", "< 0.0316 µM"],
  ["CC1(C)CCC(CN2CCN(c3ccc(C(=O)NS(=O)(=O)c4ccc(NCC5CCOCC5)c([N+](=O)[O-])c4)c(Oc4cnc5[nH]ccc5c4)c3)CC2)=C(c2ccc(Cl)cc2)C1 + CN1CCN(c2cc(C(=O)Nc3cc4cc(-c5cnn(C)c5)ccc4cn3)ccn2)CC1", "< 0.0316 µM"],
  ["C#Cc1c(F)ccc2cc(O)cc(-c3ncc4c(N5CC6CCC(C5)N6)nc(OCC56CCCN5CC(F)C6)nc4c3F)c12 (stereo not given) + CNC(=O)c1ccc(Nc2nc(OC3CCCC3)c3c(-c4ccc5nc(C)oc5c4)c[nH]c3n2)c(OC)c1", "5.76 µM"]
]}
